This listing pairs compounds with measured Emax.
target: KOR (Mus musculus, UniProt P33534); construct: expressed in transfected cells; membrane homogenate; test: [35S]-GTPγS functional assay, KOR; assay type: biochemical; settings: percent of U50,488 full agonist control
Sequence (P33534 whole entry): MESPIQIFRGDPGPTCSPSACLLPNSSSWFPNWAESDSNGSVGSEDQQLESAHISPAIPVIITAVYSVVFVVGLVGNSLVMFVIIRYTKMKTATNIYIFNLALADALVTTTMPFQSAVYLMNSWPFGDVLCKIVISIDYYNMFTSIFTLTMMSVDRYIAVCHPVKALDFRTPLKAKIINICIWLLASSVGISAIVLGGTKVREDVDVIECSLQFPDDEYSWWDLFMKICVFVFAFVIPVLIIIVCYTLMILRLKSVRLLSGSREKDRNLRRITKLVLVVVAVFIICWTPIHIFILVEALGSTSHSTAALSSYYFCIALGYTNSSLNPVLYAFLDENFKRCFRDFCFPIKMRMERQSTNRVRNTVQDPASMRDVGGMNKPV
Respond numerically; units are % and should not be typed.

{"compound": "CN(C(=O)CCc1ccco1)[C@@H]1CC[C@@]2(O)[C@H]3Cc4ccc(O)c5c4[C@@]2(CCN3CC2CC2)[C@H]1O5 [Compound 15]", "study target": "KOR (Mus musculus, UniProt P33534)", "result units": "%", "value reported": 101}
{"compound": "CN(C(=O)CCc1ccco1)[C@@H]1CC[C@@]2(O)[C@H]3Cc4cccc5c4[C@@]2(CCN3CC2CC2)[C@H]1O5 [Compound 11]", "study target": "KOR (Mus musculus, UniProt P33534)", "result units": "%", "value reported": 109}
{"compound": "CN(C(=O)/C=C/c1ccco1)[C@@H]1CC[C@@]2(O)[C@H]3Cc4ccc(O)c5c4[C@@]2(CCN3CC2CC2)[C@H]1O5.Cl [Compound 23]", "study target": "KOR (Mus musculus, UniProt P33534)", "result units": "%", "value reported": 106}
{"compound": "O=C(CCc1ccoc1)N[C@@H]1CC[C@@]2(O)[C@H]3Cc4cccc5c4[C@@]2(CCN3CC2CC2)[C@H]1O5 [Compound 4]", "study target": "KOR (Mus musculus, UniProt P33534)", "result units": "%", "value reported": 81.4}
{"compound": "CN(C(=O)CCc1ccoc1)[C@@H]1CC[C@@]2(O)[C@H]3Cc4cccc5c4[C@@]2(CCN3CC2CC2)[C@H]1O5 [Compound 3]", "study target": "KOR (Mus musculus, UniProt P33534)", "result units": "%", "value reported": 86.4}
{"compound": "CN(C(=O)CCc1ccoc1)[C@@H]1CC[C@@]2(O)[C@H]3Cc4ccc(O)c5c4[C@@]2(CCN3CC2CC2)[C@H]1O5 [Compound 7]", "study target": "KOR (Mus musculus, UniProt P33534)", "result units": "%", "value reported": 102}
{"compound": "Cl.O=C(CCc1ccoc1)N[C@@H]1CC[C@@]2(O)[C@H]3Cc4ccc(O)c5c4[C@@]2(CCN3CC2CC2)[C@H]1O5 [Compound 8]", "study target": "KOR (Mus musculus, UniProt P33534)", "result units": "%", "value reported": 95.9}
{"compound": "CN(C(=O)CCc1ccco1)[C@H]1CC[C@@]2(O)[C@H]3Cc4ccc(O)c5c4[C@@]2(CCN3CC2CC2)[C@H]1O5 [Compound 13]", "study target": "KOR (Mus musculus, UniProt P33534)", "result units": "%", "value reported": 101}
{"compound": "CN(C(=O)/C=C/c1ccco1)[C@H]1CC[C@@]2(O)[C@H]3Cc4ccc(O)c5c4[C@@]2(CCN3CC2CC2)[C@H]1O5.Cl [Compound 21]", "study target": "KOR (Mus musculus, UniProt P33534)", "result units": "%", "value reported": 107}
{"compound": "O=C(/C=C/c1ccco1)N[C@@H]1CC[C@@]2(O)[C@H]3Cc4cccc5c4[C@@]2(CCN3CC2CC2)[C@H]1O5 [Compound 20]", "study target": "KOR (Mus musculus, UniProt P33534)", "result units": "%", "value reported": 99.7}

Lab note: need Emax for CN(C(=O)CCc1ccco1)[C@H]1CC[C@@]2(O)[C@H]3Cc4cccc5c4[C@@]2(CCN3CC2CC2)[C@H]1O5 [Compound 9] on KOR (Mus musculus, UniProt P33534), anyone have it?
91.4

Lab note: need Emax for Cl.O=C(CCc1ccoc1)N[C@H]1CC[C@@]2(O)[C@H]3Cc4ccc(O)c5c4[C@@]2(CCN3CC2CC2)[C@H]1O5 [Compound 6] on KOR (Mus musculus, UniProt P33534), anyone have it?
80.3

Lab note: need Emax for O=C(/C=C/c1ccco1)N[C@H]1CC[C@@]2(O)[C@H]3Cc4cccc5c4[C@@]2(CCN3CC2CC2)[C@H]1O5 [Compound 18] on KOR (Mus musculus, UniProt P33534), anyone have it?
85.2

Lab note: need Emax for O=C(CCc1ccoc1)N[C@H]1CC[C@@]2(O)[C@H]3Cc4cccc5c4[C@@]2(CCN3CC2CC2)[C@H]1O5 [Compound 2] on KOR (Mus musculus, UniProt P33534), anyone have it?
66.1

Lab note: need Emax for O=C(CCc1ccco1)N[C@H]1CC[C@@]2(O)[C@H]3Cc4cccc5c4[C@@]2(CCN3CC2CC2)[C@H]1O5 [Compound 10] on KOR (Mus musculus, UniProt P33534), anyone have it?
86.5

Lab note: need Emax for CN(C(=O)/C=C/c1ccco1)[C@@H]1CC[C@@]2(O)[C@H]3Cc4cccc5c4[C@@]2(CCN3CC2CC2)[C@H]1O5 [Compound 19] on KOR (Mus musculus, UniProt P33534), anyone have it?
96.9

Lab note: need Emax for O=C(CCc1ccco1)N[C@@H]1CC[C@@]2(O)[C@H]3Cc4cccc5c4[C@@]2(CCN3CC2CC2)[C@H]1O5 [Compound 12] on KOR (Mus musculus, UniProt P33534), anyone have it?
86.8

Lab note: need Emax for CN(C(=O)/C=C/c1ccco1)[C@H]1CC[C@@]2(O)[C@H]3Cc4cccc5c4[C@@]2(CCN3CC2CC2)[C@H]1O5 [Compound 17] on KOR (Mus musculus, UniProt P33534), anyone have it?
110

The values you see were collected from paper PMC11181328.
